# Assay explanation: Binding affinity to rat hemoglobin assessed as protein bound compound level at 20 uM
# Type: ADME
# Protocol conditions: read-out: PB (converted)
Value type: fraction unbound at 20 µM
Returns: the value as a bare number; no unit string appended.

Quick check: fraction unbound at 20 µM of O=C(CBr)N1CC([N+](=O)[O-])([N+](=O)[O-])C1 [NIBROZETONE] ? 0.21

====

# Assay explanation: Binding affinity to dog hemoglobin assessed as protein bound compound level at 1 uM
# Format: ADME, Canis lupus familiaris
# Protocol conditions: read-out: PB (converted)
Value type: fraction unbound at 1 µM

Return reported fraction unbound at 1 µM; argument: O=C(CBr)N1CC([N+](=O)[O-])([N+](=O)[O-])C1 [NIBROZETONE] 0.77

====

# Assay explanation: Drug excretion in Wistar Hanover rat urine at 10 mg/kg, iv administered as single dose after 0 to 8 hrs
# Assay type: ADME, organism-based
# Parameters: dose 10 mg/kg, route intravenous
# Protocol conditions: read-out: Drug excretion
Value type: dose excreted (%)
// units = %; emit number, no label

What does the data say about its dose excreted? Entry: O=C(CBr)N1CC([N+](=O)[O-])([N+](=O)[O-])C1 [NIBROZETONE] 26

====

# Assay explanation: Half life in Wistar Hanover rat plasma at 10 mg/kg, iv administered as single dose
# Assay type: ADME, organism-based
# Set-up: dose 10 mg/kg, route intravenous
Value type: half-life
Answer format reminder: number followed by unit.

Need half-life, item O=C(CBr)N1CC([N+](=O)[O-])([N+](=O)[O-])C1 66.1 h

====

# Assay explanation: Ratio of drug level in blood to plasma in Wistar Hanover rat at 10 mg/kg, iv administered as single dose after 0.083 hrs
# Format: ADME, organism-based
# Set-up: dose 10 mg/kg, route intravenous
# Protocol conditions: whole blood and plasma
Value type: blood plasma ratio at 0.083 h
# answer = number (no unit)

Entry under review: O=C(CBr)N1CC([N+](=O)[O-])([N+](=O)[O-])C1 . Reported blood plasma ratio at 0.083 h? 12.4
